- method_description: Polarity: interfacial tension toward water;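 further: polarity expressed as oil–water interfacial tension in mN/m, lower values meaning a more polar oil, with medium-polar lipids falling between 20 and 30 mN/m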
- Assay type: physicochemical
- particulars: medium-polar lipids
value_type: Polarity (mN/m)

These recorded examples may help you get a feel for the data.
CCCCC(CC)C(=O)OCCC(C)CC(C)(C)C (stereo not drawn); 26.2
CCCCCCOCCCCCC; 29.2
CCCCCCCCCCCCCCCCCC(=O)OC(C)C [Isopropyl stearate, Isopropyl Stearate]; 21.9
CCCCCCCCCCCCCC(=O)OCC(CCCCCCCC)CCCCCCCCCC (stereo not drawn) [M.O.D., Octyldodecyl Myristate]; 22.1
CCCCCCCCCCCCCCCC(=O)OCCCCCCCC [Cegesoft C24, Octyl Palmitate]; 23.1

(P) CC(C)CCCCCCCOC(=O)C(C)(C)C [DUB VCI 10, Isodecyl Neopentanoate]
(Q) CCCCCCCC(=O)OCC(COC(=O)CCCCCCC)OC(=O)CCCCCCC
So which one has the bigger Polarity here, P or Q ? Indicate which entry you chose by stating its label.
P
